Test: Half life in Sprague-Dawley rat at 1 mg/kg, iv or 5 mg/kg, po
Assay type: ADME, organism-based
Details: in vivo
Endpoint label: half-life (h)
Number only, in h; omit the unit.

Reported half-life ( "CS(=O)(=O)N1CCC(NC(=O)c2cc(C3CC3)on2)CC1" ) = 2.5

---

Assay: Solubility of compound by CLND method
Assay type: physicochemical
Readings of solubility kinetic for the listed compounds
Reply numerically in µM, unit not repeated.

These recorded examples may help you get a feel for the data.
Query "O=C(NC1CCN(S(=O)(=O)C[C@H]2CC[C@H](NCCC(F)(F)F)CC2)CC1)c1cc(C2CC2)on1" yields solubility kinetic of 48

Value of solubility kinetic reported for the compound "O=C(NC1CCN(S(=O)(=O)C[C@H]2CC[C@H](NCc3ccccc3F)CC2)CC1)c1cc(C2CC2)on1" is 297

# solubility kinetic (compound: "O=C(NC1CCN(S(=O)(=O)c2ccc(CN3CCCCC3)cc2)CC1)c1cc(C2CC2)on1" ) is 26

Measured solubility kinetic, "CC(C)(C)CN[C@H]1CC[C@H](CS(=O)(=O)N2CCC(NC(=O)c3cc(C4CC4)on3)CC2)CC1" : 367

Lab note: "O=C(NC1CCN(S(=O)(=O)C[C@H]2CC[C@H](NCc3cccc(F)c3)CC2)CC1)c1cc(C2CC2)on1" gave solubility kinetic of 277

Others:
Quick note, solubility kinetic for "O=C(NC1CCN(S(=O)(=O)C[C@H]2CC[C@H](NCc3ccccn3)CC2)CC1)c1cc(C2CC2)on1" landed at 52

Value of solubility kinetic reported for the compound "CS(=O)(=O)N1CCC(NC(=O)c2cc(C3CC3)on2)CC1" is 55

solubility kinetic in this record for "CCN1CCC(S(=O)(=O)N2CCC(NC(=O)c3cc(C4CC4)on3)CC2)CC1" : 502

Memo: "NCCCCS(=O)(=O)N1CCC(NC(=O)c2cc(C3CC3)on2)CC1" , reported solubility kinetic: 385

---

Assay: Permeability of compound
Type: ADME
Conditions: not told; read-out: permeability
Threshold 7 ×10⁻⁶ cm/s. Papp below it: Criterion met. Papp at it or above: Criterion not met.

// known answers, use as guide
Q: # TODO verify Papp < 7 ×10⁻⁶ cm/s strictly for this compound: "N[C@H]1CC[C@H](CS(=O)(=O)N2CCC(NC(=O)c3cc(C4CC4)on3)CC2)CC1"
A: Criterion met

Q: Quick check: Papp of "CCS(=O)(=O)N1CCC(NC(=O)c2cc(C3CC3)on2)CC1" under 7 ×10⁻⁶ cm/s?
A: Criterion not met

Others:
Q: Strictly below 7 ×10⁻⁶ cm/s: is that where Papp of "CC(C)(C)CN[C@H]1CC[C@H](CS(=O)(=O)N2CCC(NC(=O)c3cc(C4CC4)on3)CC2)CC1" sits?
A: Criterion not met

Q: Just wondering, is Papp of "O=C(NC1CCN(S(=O)(=O)C[C@H]2CC[C@H](NCc3cncc(F)c3)CC2)CC1)c1cc(C2CC2)on1" below 7 ×10⁻⁶ cm/s?
A: Criterion not met

Q: Does this compound meet the criterion Papp < 7 ×10⁻⁶ cm/s? "O=C(NC1CCN(S(=O)(=O)C[C@H]2CC[C@H](NCc3ccc(Cl)cc3)CC2)CC1)c1cc(C2CC2)on1"
A: Criterion not met

---

Each item that follows carries a reported Papp.
Assay: Permeability of compound
Assay type: ADME
Conditions: not told; read-out: permeability
Kindly answer with a numeric value in ×10⁻⁶ cm/s, unit omitted.

Below, 2 molecules whose answers are already recorded.
The molecule "O=C(NC1CCN(S(=O)(=O)C[C@H]2CC[C@H](NCc3cc(F)ccn3)CC2)CC1)c1cc(C2CC2)on1" showed Papp equal to 6.6

// Papp lookup, molecule = "CCCCN[C@H]1CC[C@H](CS(=O)(=O)N2CCC(NC(=O)c3cc(C4CC4)on3)CC2)CC1" , result: 6.8

Here is the next item to consider.
The molecule listed as "O=C(NC1CCN(S(=O)(=O)C[C@H]2CC[C@H](NCc3ccncc3)CC2)CC1)c1cc(C2CC2)on1" shows Papp equal to 4.5

---

Assay: Permeability of compound
Format: ADME
Details: not told; read-out: permeability
Endpoint label: Papp

Reference set, count: 3
In plain terms, "CN(C)[C@H]1CC[C@H](CS(=O)(=O)N2CCC(NC(=O)c3cc(C4CC4)on3)CC2)CC1" has a documented Papp of < 1 ×10⁻⁶ cm/s

Per the record, "NC[C@H]1CC[C@H](S(=O)(=O)N2CCC(NC(=O)c3cc(C4CC4)on3)CC2)CC1" has Papp of < 1 ×10⁻⁶ cm/s

So, "NCCCCS(=O)(=O)N1CCC(NC(=O)c2cc(C3CC3)on2)CC1" ? Its Papp was < 1 ×10⁻⁶ cm/s

Next:
Recorded result, "CCN[C@H]1CC[C@H](CS(=O)(=O)N2CCC(NC(=O)c3cc(C4CC4)on3)CC2)CC1" , Papp: < 0.3 ×10⁻⁶ cm/s
